System: Orobanche cumana Wallr. seeds (race F; seed lots IN146 and IN153)
Experiment: Germination of preconditioned Orobanche cumana seeds on glass fiber filter paper in petri dishes
Type: in vivo
Conditions: Table 7; seed lot IN153, race F; 0.01 mg l^−1; mean, N = 5 × 100 seeds, re-transformed data
property: Germination % at concentration of 0.01 mg l^−1

compound	value-measured
CC1=CC(OC=C2C(=O)N(C(=O)OC(C)(C)C)C3c4ccccc4C(F)C23)OC1=O (mixture of isomers)	14.3 c %
CC1=CC(OC=C2C(=O)NC3c4cc(C)ccc4CC23)OC1=O (stereo not drawn)	98.5 a %
CC1=CC(OC=C2C(=O)N(c3ccc(Cl)cc3)C3c4ccccc4CC23)OC1=O (stereo not drawn)	99.1 a %
COc1ccc(N2C(=O)C(=COC3C=C(C)C(=O)O3)C3Cc4ccccc4C32)cc1 (stereo not drawn)	14.4 c %
COc1ccc2c(c1)CC1C(=COC3C=C(C)C(=O)O3)C(=O)NC21 (stereo not drawn)	95.8 ab %
CC1=CC(OC=C2C(=O)N(c3ccccc3)C3c4ccccc4CC23)OC1=O (stereo not drawn)	98.9 a %

* * *

Listed next: entries and their corresponding Germination % at concentration of 0.001 mg l^−1.
System: Orobanche cumana Wallr. seeds (race F; seed lots IN146 and IN153)
Assay: Germination of preconditioned Orobanche cumana seeds on glass fiber filter paper in petri dishes
Type: in vivo
Details: Table 8; seed lot IN153, race F; 0.001 mg l^−1; mean, N = 5 × 100 seeds, re-transformed data
property: Germination % at concentration of 0.001 mg l^−1

compound	value-measured
CC(=O)N1C(=O)C(=COC2C=C(C)C(=O)O2)C2Cc3ccccc3C21 (stereo not drawn) [Compound A22]	87.6 abc %
CC1=CC(OC=C2C(=O)N(c3nccs3)C3c4ccccc4CC23)OC1=O (stereo not drawn) [Compound A26]	93.9 abc %
CC1=CC(OC=C2C(=O)N(CC#N)C3c4ccccc4CC23)OC1=O (mixture of isomers) [A28*]	42.4 ef %
C=CCN1C(=O)C(=COC2C=C(C)C(=O)O2)C2Cc3ccccc3C21 (mixture of isomers) [A29*]	90.3 abc %
CC1=CC(OC=C2C(=O)N(c3ccc(C#N)cn3)C3c4ccccc4CC23)OC1=O (mixture of isomers) [A16*]	7.8 fg %
CC1=CC(OC=C2C(=O)N(c3ccc(C(F)(F)F)cc3)C3c4ccccc4CC23)OC1=O (mixture of isomers) [A19*]	71.5 abcde %
CC(=O)OC1c2ccccc2C2C1C(=COC1C=C(C)C(=O)O1)C(=O)N2C(=O)OC(C)(C)C (mixture of isomers) [A24*]	44.8 def %
CCOC(=O)N1C(=O)C(=COC2C=C(C)C(=O)O2)C2Cc3ccccc3C21 (stereo not drawn) [Compound A21]	83.7 abcde %
CC1=CC(O/C=C2/C(=O)N(Cc3ccc(F)cc3)C3c4ccccc4CC23)OC1=O (stereo not drawn) [A27*]	7.7 fg %

* * *

Property: Germination % at concentration of 0.01 mg l^−1; scope: individual compounds
System: Orobanche cumana Wallr. seeds (race F; seed lots IN146 and IN153)
Assay: Germination of preconditioned Orobanche cumana seeds on glass fiber filter paper in petri dishes
Assay type: in vivo
Details: 0.01 mg l^−1; lot IN146, raceF; mean, N = 5 × 100 seeds, re-transformed data; Table 4
property: Germination % at concentration of 0.01 mg l^−1

compound	target-of-assay	value-measured
CC1=CC(OC=C2C(=O)NC3c4cccc(C)c4CC23)OC1=O (stereo not drawn)	Orobanche cumana Wallr. seeds (race F; seed lots IN146 and IN153)	90 a %
CC1=CC(OC=C2C(=O)NC3c4ccc(Cl)cc4CC23)OC1=O (stereo not drawn)	Orobanche cumana Wallr. seeds (race F; seed lots IN146 and IN153)	84.0 ab %
CC1=CC(OC=C2C(=O)NC3c4c(C#N)cccc4CC23)OC1=O (mixture of isomers)	Orobanche cumana Wallr. seeds (race F; seed lots IN146 and IN153)	4.2 e %
